# PROTOCOL_SUMMARY: Selectivity index, ratio of IC50 for cytotoxicity against human MRC5 cells to IC50 for cytotoxicity against human HeLa cells
# Assay type: toxicity, cell-based
# APPLIED_CONDITIONS: MRC5 cells versus HeLa cells, read-out: Ratio IC50
Binary call on selectivity ratio with cut-off 0.8: strictly below means 1, and equality or higher means -1.

Record excerpt, results attached:
C[n+]1ccc(CN2C(=O)c3ccc4c5c(ccc(c35)C2=O)C(=O)N(Cc2cc[n+](C)cc2)C4=O)cc1 = 1
C[n+]1cccc2c(N3C(=O)c4ccc5c6c(ccc(c46)C3=O)C(=O)N(c3cccc4c3ccc[n+]4C)C5=O)cccc21 = 1
O=C1c2ccc3c4c(ccc(c24)C(=O)N1c1ccc(N2CCOCC2)cc1)C(=O)N(c1ccc(N2CCOCC2)cc1)C3=O = -1
CN1CCN(c2ccccc2N2C(=O)c3ccc4c5c(ccc(c35)C2=O)C(=O)N(c2ccccc2N2CCN(C)CC2)C4=O)CC1 = -1
C[n+]1cc(N2C(=O)c3ccc4c5c(ccc(c35)C2=O)C(=O)N(c2cc3ccccc3[n+](C)c2)C4=O)cc2ccccc21 = 1

q: Item O=C1c2ccc3c4c(ccc(c24)C(=O)N1CC(c1ccccn1)N1CCOCC1)C(=O)N(CC(c1ccccn1)N1CCOCC1)C3=O (centres undefined) : selectivity ratio beneath 0.8, strictly?
a: -1

q: Is selectivity ratio of CN1CCN(C(C)(C)CN2C(=O)c3ccc4c5c(ccc(c35)C2=O)C(=O)N(CC(C)(C)N2CCN(C)CC2)C4=O)CC1 strictly below 0.8?
a: 1

q: Consider O=C1c2ccc3c4c(ccc(c24)C(=O)N1CCCN1CCOCC1)C(=O)N(CCCN1CCOCC1)C3=O . Does its selectivity ratio lie strictly below 0.8?
a: -1

q: Bench note: check whether CC(CN1C(=O)c2ccc3c4c(ccc(c24)C1=O)C(=O)N(CC(C)N1CCN(C)CC1)C3=O)N1CCN(C)CC1 (centres undefined) shows selectivity ratio below 0.8
a: -1

---

# System: HeLa
# PROTOCOL_SUMMARY: Cytotoxicity against human HeLa cells assessed as inhibition of cell proliferation incubated for 72 hrs by alamar blue assay
# Assay type: functional, cell-based
# APPLIED_CONDITIONS: Homo sapiens, HeLa, 72 h
RECORDED_ENDPOINT: IC50 (µM)
Return type: number; implicit unit µM.

CN1CCN(c2ccccc2N2C(=O)c3ccc4c5c(ccc(c35)C2=O)C(=O)N(c2ccccc2N2CCN(C)CC2)C4=O)CC1 = 1.21

q: Tell us which IC50 value is on record for C[n+]1cccc2c(N3C(=O)c4ccc5c6c(ccc(c46)C3=O)C(=O)N(c3cccc4c3ccc[n+]4C)C5=O)cccc21
a: 24.2

q: Answer with the recorded IC50 for the compound listed here: C[n+]1cc(N2C(=O)c3ccc4c5c(ccc(c35)C2=O)C(=O)N(c2cc3ccccc3[n+](C)c2)C4=O)cc2ccccc21
a: 64.8

q: Report IC50 for CN1CCN(c2ccc(N3C(=O)c4ccc5c6c(ccc(c46)C3=O)C(=O)N(c3ccc(N4CCN(C)CC4)cc3)C5=O)cc2)CC1
a: 2.29

---

# PROTOCOL_SUMMARY: Selectivity index, ratio of IC50 for cytotoxicity against human MRC5 cells to IC50 for antitrypanosomal activity against Trypanosoma brucei bloodstream form
# Assay type: toxicity, cell-based
# APPLIED_CONDITIONS: MRC5 cells versus Trypanosoma brucei bloodstream form, read-out: Ratio IC50
RECORDED_ENDPOINT: selectivity ratio

q: Name the recorded selectivity ratio of the molecule listed here: CN1CCN(c2ccc(N3C(=O)c4ccc5c6c(ccc(c46)C3=O)C(=O)N(c3ccc(N4CCN(C)CC4)cc3)C5=O)cc2)CC1
a: 29.5

q: Using known records, supply selectivity ratio for O=C1c2ccc3c4c(ccc(c24)C(=O)N1c1ccccc1N1CCOCC1)C(=O)N(c1ccccc1N1CCOCC1)C3=O
a: 41.9

q: Return reported selectivity ratio. Input molecule: CC(CCN1C(=O)c2ccc3c4c(ccc(c24)C1=O)C(=O)N(CCC(C)N1CCN(C)CC1)C3=O)N1CCN(C)CC1 (centres undefined)
a: 9.5

q: Determine its reported selectivity ratio: C[n+]1cccc2cc(N3C(=O)c4ccc5c6c(ccc(c46)C3=O)C(=O)N(c3ccc4c(ccc[n+]4C)c3)C5=O)ccc21
a: 0.3

---

# Tested on: Quadruplex DNA
# PROTOCOL_SUMMARY: Binding affinity to G-quadruplex telomeric DNA F21T (5'-duplex GGG TTAGGG TTAGGG TTAGGG-3') (unknown origin) assessed as stabilization by measuring change in melting temperature at 10 uM in potassium buffer by FRET melting assay
# Format: nucleic-acid assay
RECORDED_ENDPOINT: ΔTm (°C)
Give the number; °C is assumed, so skip it.

Example entries begin here.
O=C1c2ccc3c4c(ccc(c24)C(=O)N1CCCN1CCOCC1)C(=O)N(CCCN1CCOCC1)C3=O = 7
CC(CN1C(=O)c2ccc3c4c(ccc(c24)C1=O)C(=O)N(CC(C)N1CCN(C)CC1)C3=O)N1CCN(C)CC1 (stereo not given) = 20.5
C[n+]1cccc(N2C(=O)c3ccc4c5c(ccc(c35)C2=O)C(=O)N(c2ccc[n+](C)c2)C4=O)c1 = 0.5
O=C1c2ccc3c4c(ccc(c24)C(=O)N1CC(c1ccccn1)N1CCOCC1)C(=O)N(CC(c1ccccn1)N1CCOCC1)C3=O (stereo not given) = 0.1

q: Give the reported value of ΔTm for this record: CN1CCN(CC2(CN3C(=O)c4ccc5c6c(ccc(c46)C3=O)C(=O)N(CC3(CN4CCN(C)CC4)CC3)C5=O)CC2)CC1
a: 18.5

---

Each record here notes measured pIC50.
# Tested on: HeLa
# PROTOCOL_SUMMARY: Cytotoxicity against human HeLa cells assessed as inhibition of cell proliferation incubated for 72 hrs by alamar blue assay
# Type: functional, cell-based
# APPLIED_CONDITIONS: Homo sapiens, HeLa, 72 h
Scale note: pIC50 = -log10(concentration in M).

Here is how some compounds turned out for pIC50.
CC(CCN1C(=O)c2ccc3c4c(ccc(c24)C1=O)C(=O)N(CCC(C)N1CCN(C)CC1)C3=O)N1CCN(C)CC1 (stereo not given) = 6.46
C[n+]1ccc(CN2C(=O)c3ccc4c5c(ccc(c35)C2=O)C(=O)N(Cc2cc[n+](C)cc2)C4=O)cc1 = 4.83
O=C1c2ccc3c4c(ccc(c24)C(=O)N1CC(c1ccccn1)N1CCOCC1)C(=O)N(CC(c1ccccn1)N1CCOCC1)C3=O (stereo not given) = 4.01
O=C1c2ccc3c4c(ccc(c24)C(=O)N1c1ccccc1N1CCOCC1)C(=O)N(c1ccccc1N1CCOCC1)C3=O = 5.51
CN1CCN(C(C)(C)CN2C(=O)c3ccc4c5c(ccc(c35)C2=O)C(=O)N(CC(C)(C)N2CCN(C)CC2)C4=O)CC1 = 5.35
C[n+]1cccc2cc(N3C(=O)c4ccc5c6c(ccc(c46)C3=O)C(=O)N(c3ccc4c(ccc[n+]4C)c3)C5=O)ccc21 = 4.43
CC(CN1C(=O)c2ccc3c4c(ccc(c24)C1=O)C(=O)N(CC(C)N1CCN(C)CC1)C3=O)N1CCN(C)CC1 (stereo not given) = 5.77
CN1CCN(c2cccc(N3C(=O)c4ccc5c6c(ccc(c46)C3=O)C(=O)N(c3cccc(N4CCN(C)CC4)c3)C5=O)c2)CC1 = 6.33

q: Indicate the recorded pIC50 value for this compound: CN1CCN(CCN2C(=O)c3ccc4c5c(ccc(c35)C2=O)C(=O)N(CCN2CCN(C)CC2)C4=O)CC1
a: 5.97

q: Quickly give me recorded pIC50 for CN1CCN(CC2(CN3C(=O)c4ccc5c6c(ccc(c46)C3=O)C(=O)N(CC3(CN4CCN(C)CC4)CC3)C5=O)CC2)CC1
a: 5.75

q: State its pIC50: O=C1c2ccc3c4c(ccc(c24)C(=O)N1CCCN1CCOCC1)C(=O)N(CCCN1CCOCC1)C3=O
a: 5.23

q: Determine from records and report pIC50 for CN1CCN(CCCN2C(=O)c3ccc4c5c(ccc(c35)C2=O)C(=O)N(CCCN2CCN(C)CC2)C4=O)CC1
a: 6.39

q: Return pIC50 (reported value) for this compound: O=C1c2ccc3c4c(ccc(c24)C(=O)N1c1ccc(N2CCOCC2)cc1)C(=O)N(c1ccc(N2CCOCC2)cc1)C3=O
a: 4.33

---

# Test system: Quadruplex DNA
# PROTOCOL_SUMMARY: Binding affinity to Trypanosoma brucei G-quadruplex telomeric DNA FEBR1T (5'-duplex GGG TTAGGG TTAGGG TTAGGG-3') assessed as stabilization by measuring change in melting temperature at 10 uM in potassium buffer by FRET melting assay
# Assay type: nucleic-acid assay
Where ΔTm equals or exceeds 10 °C, the correct label is condition met; where it does not, the label is condition not met.

See these solved cases before continuing.
CN1CCN(CCN2C(=O)c3ccc4c5c(ccc(c35)C2=O)C(=O)N(CCN2CCN(C)CC2)C4=O)CC1 = condition met
O=C1c2ccc3c4c(ccc(c24)C(=O)N1CC(c1ccccn1)N1CCOCC1)C(=O)N(CC(c1ccccn1)N1CCOCC1)C3=O (stereo not drawn) = condition not met
C[n+]1cccc2cc(N3C(=O)c4ccc5c6c(ccc(c46)C3=O)C(=O)N(c3ccc4c(ccc[n+]4C)c3)C5=O)ccc21 = condition not met
CN1CCN(c2cccc(N3C(=O)c4ccc5c6c(ccc(c46)C3=O)C(=O)N(c3cccc(N4CCN(C)CC4)c3)C5=O)c2)CC1 = condition not met
CN1CCN(CC2(CN3C(=O)c4ccc5c6c(ccc(c46)C3=O)C(=O)N(CC3(CN4CCN(C)CC4)CC3)C5=O)CC2)CC1 = condition met
CN1CCN(CCCN2C(=O)c3ccc4c5c(ccc(c35)C2=O)C(=O)N(CCCN2CCN(C)CC2)C4=O)CC1 = condition met

q: Given the entry C[n+]1cc(N2C(=O)c3ccc4c5c(ccc(c35)C2=O)C(=O)N(c2cc3ccccc3[n+](C)c2)C4=O)cc2ccccc21 , answer whether its ΔTm meets or surpasses 10 °C.
a: condition not met

q: Threshold query (ΔTm >= 10 °C) on CC(CN1C(=O)c2ccc3c4c(ccc(c24)C1=O)C(=O)N(CC(C)N1CCN(C)CC1)C3=O)N1CCN(C)CC1 (stereo not drawn)
a: condition met
